- tested system: T1, orthogonal hCD122 receptor (hoRb), hCD122 with H133D and Y134F (human, UniProt P14784 27-550)
- T1 sequence: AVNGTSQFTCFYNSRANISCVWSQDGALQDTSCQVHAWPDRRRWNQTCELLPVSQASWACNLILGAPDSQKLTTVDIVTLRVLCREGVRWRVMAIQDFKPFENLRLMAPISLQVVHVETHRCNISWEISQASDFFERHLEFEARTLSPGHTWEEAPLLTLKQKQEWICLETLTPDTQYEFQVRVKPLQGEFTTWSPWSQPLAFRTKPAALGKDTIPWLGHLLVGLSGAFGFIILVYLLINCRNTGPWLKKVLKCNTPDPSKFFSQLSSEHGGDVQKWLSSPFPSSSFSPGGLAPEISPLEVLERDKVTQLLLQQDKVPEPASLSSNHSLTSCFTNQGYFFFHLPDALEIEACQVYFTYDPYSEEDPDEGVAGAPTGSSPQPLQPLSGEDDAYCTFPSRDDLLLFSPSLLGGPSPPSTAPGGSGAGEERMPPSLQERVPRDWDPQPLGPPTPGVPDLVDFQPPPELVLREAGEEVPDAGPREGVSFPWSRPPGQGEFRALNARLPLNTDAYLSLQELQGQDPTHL
- protocol notes: cell-based or functional assay
assay metric: NKL Ortho Proliferation Signal 1:10

binder="C125S, SQVLKA (ligand) APTSSSTKKTQLQLSQLLVLLKAILNGINNYKNPKLTRMLTFKFYMPKKATELKHLQCLEEELKPLEEVLNLAQSKNFHLRPRDLISNINVIVLELKGSETTFMCEYADETATIVEFLNRWITFSQSIISTLT" assay_metric="NKL Ortho Proliferation Signal 1:10" obs_value=59500
binder="R38G, SQVLKA (ligand) APTSSSTKKTQLQLSQLLVLLKAILNGINNYKNPKLTGMLTFKFYMPKKATELKHLQCLEEELKPLEEVLNLAQSKNFHLRPRDLISNINVIVLELKGSETTFMCEYADETATIVEFLNRWITFCQSIISTLT" assay_metric="NKL Ortho Proliferation Signal 1:10" obs_value=18100
